assay: Acute oral toxicity in SD rats; assay type: in vivo; conditions: rat, in vivo, po, rats, male
recorded-metric: LD50 at 336 h

CCc1c2[n+](cc3c(OCc4ccc(C(F)(F)F)cc4)c(OC)ccc13)CCc1cc(OC)c(OC)cc1-2 [Compound No. 9]: > 2500 mg/kg
CCCOc1cc2c(cc1OCCC)-c1c(CC)c3ccc(OCCC)c(OCc4ccc(C(F)(F)F)cc4)c3c[n+]1CC2 [Compound No. 68]: > 3000 mg/kg
CCc1c2[n+](cc3c(OCc4ccc(C(C)(C)C)cc4)c(OC)ccc13)CCc1cc(OC)c(OC)cc1-2 [Compound No. 2]: > 2000 mg/kg

**Query** Request the reported LD50 at 336 h associated with CCc1c2[n+](cc3c(OCc4c(F)c(F)c(F)c(F)c4F)c(OC)ccc13)CCc1cc(OC)c(OC)cc1-2 [Compound No. 3]
**Result** > 2000 mg/kg

----------
biological target: sterol 14-reductase (Rattus norvegicus, UniProt A0ACM8Q6X4); construct: microsome which was used as an enzyme source of sterol 14-reductase; from tissue; host or cells: liver microsomes of male Sprague-Dawley rats fed lovastatin and cholestyramine; assay: Inhibition of sterol 14-reductase in rat liver microsomes; format: biochemical; conditions: read-out: Enzyme Activity (relative in vitro activity for sterol 14-reductase, IC50 class)
recorded-metric: IC50

CCc1c2[n+](cc3c(OCc4c(F)c(F)c(F)c(F)c4F)c(OC)ccc13)CCc1cc3c(cc1-2)OCO3: < 1 µM
CCc1c2[n+](cc3c(OCc4cccc(Cl)c4)c(OC)ccc13)CCc1cc(OC)c(OC)cc1-2: 10 to 100 µM
CCc1c2[n+](cc3c(OCc4ccc(-c5ccccc5)cc4)c(OC)ccc13)CCc1cc3c(cc1-2)OCO3: 10 to 100 µM
CCc1c2[n+](cc3c(OCc4cc(OC)c(OC)c(OC)c4)c(OC)ccc13)CCc1cc(OC)c(OC)cc1-2: > 100 µM
CCc1c2[n+](cc3c(OCc4ccc(F)cc4Cl)c(OC)ccc13)CCc1cc(OC)c(OC)cc1-2: 10 to 100 µM
CCOc1cc2c(cc1OCC)-c1c(CC)c3ccc(OC)c(OCc4ccc(C(C)(C)C)cc4)c3c[n+]1CC2: < 1 µM

**Query** # get_value(readout='IC50', item= CCc1c2[n+](cc3c(OCc4ccc(C(C)(C)C)cc4)c(OC)ccc13)CCc1cc(OC)c(OC)cc1-2 [Compound No. 2] )
**Result** < 1 µM

----------
Molecular target: sterol 14-reductase (Rattus norvegicus)
Construct: microsome which was used as an enzyme source of sterol 14-reductase; from tissue; host or cells: liver microsomes of male Sprague-Dawley rats fed lovastatin and cholestyramine
Sequence (A0ACM8Q6X4 1-418): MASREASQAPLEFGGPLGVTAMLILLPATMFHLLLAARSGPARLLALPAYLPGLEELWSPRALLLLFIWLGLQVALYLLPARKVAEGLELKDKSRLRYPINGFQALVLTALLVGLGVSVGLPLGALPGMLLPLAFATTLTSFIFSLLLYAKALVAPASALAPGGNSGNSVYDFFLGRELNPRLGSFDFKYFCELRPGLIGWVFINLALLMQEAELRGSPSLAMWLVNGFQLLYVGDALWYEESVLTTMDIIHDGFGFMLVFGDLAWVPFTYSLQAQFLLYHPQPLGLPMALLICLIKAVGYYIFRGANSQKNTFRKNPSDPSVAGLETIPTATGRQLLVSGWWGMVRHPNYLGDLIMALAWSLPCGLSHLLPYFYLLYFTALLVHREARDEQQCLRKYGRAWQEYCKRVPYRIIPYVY
Assay: Inhibition of sterol 14-reductase in rat liver microsomes
Assay type: biochemical
Details: read-out: Enzyme Activity (relative in vitro activity for sterol 14-reductase, IC50 class)
pIC50: −log10 of the molar value.
// pIC50 lookup, one value per entry

CCCOc1cc2c(cc1OCCC)-c1c(CC)c3ccc(OCCC)c(OCc4ccc(C(F)(F)F)cc4)c3c[n+]1CC2 [Compound No. 68]: > 6.00
CCc1c2[n+](cc3c(OCc4cccc(C(F)(F)F)c4)c(OC)ccc13)CCc1cc3c(cc1-2)OCO3 [Compound No. 51]: 4.00 to 5.00
C=C(C)COc1c(OC)ccc2c(CC)c3[n+](cc12)CCc1cc(OC)c(OC)cc1-3 [Compound No. 41]: < 4.00

**Query** Lookup: pIC50 / sterol 14-reductase (Rattus norvegicus) / CCc1c2[n+](cc3c(OCc4cccc(Br)c4)c(OC)ccc13)CCc1cc(OC)c(OC)cc1-2 [Compound No. 34]
**Result** 4.00 to 5.00

**Query** Requested read-out pIC50, target or system sterol 14-reductase (Rattus norvegicus), entry CCOc1cc2c(cc1OCC)-c1c(CC)c3ccc(OCC)c(OCc4ccc(C(F)(F)F)cc4)c3c[n+]1CC2 [Compound No. 62]
**Result** 4.00 to 5.00
